- test name: BSK_SAg_PBMCCytotoxicity: PBMC Cytotoxicity Assessment in the BioMAP Diversity Plus: SAg Assay (AID 2283093);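 note: PBMC viability measured as Alamar Blue reduction fluorescence at 546/580 nm; fitted both ways against DMSO so a hit may be loss or gain of signal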
- particulars: primary human HUVEC with PBMC
Active and inactive are the calls of the source. Rule for the calls: active = hit-call score of the fitted dose curve at least 0.9, where 1 is the maximum; inactive = score below 0.9.
Give your call using only these classes: active, inactive

Before answering, review these 3 worked examples.
>>> qualitative_label("O=[N+]([O-])c1cc(C(F)(F)F)ccc1Cl")
"inactive"
>>> qualitative_label("O=C(O)c1cn(C2CC2)c2cc(N3CCNCC3)c(F)cc2c1=O")
"inactive"
>>> qualitative_label("O=C1OC2(c3cc(Br)c(O)c(Br)c3Oc3c2cc(Br)c(O)c3Br)c2c(Cl)c(Cl)c(Cl)c(Cl)c21")
"active"

Continue with the next compound.
I would be grateful if you could indicate the recorded call for CN(CCOc1ccc(CC2SC(=O)NC2=O)cc1)c1ccccn1 (centres undefined) .
inactive

---

- target system: CCAAT/enhancer-binding protein beta (Homo sapiens)
- test name: ATG_C_EBP_CIS: Attagene CIS-FACTORIAL HepG2 Assay for human CCAAT/Enhancer Binding Protein (C/EBP) beta (AID 2282927)
- particulars: HepG2 Attagene cis-factorial transcription factor reporter; actives raise or lower the signal
Active and inactive are the calls of the source. How the source made its calls: active means hit-call score of the fitted dose curve at least 0.9, where 1 is the maximum; inactive means score below 0.9.
Give your call using only these classes: 1 for active, 0 for inactive

>>> qualitative_label("CCCc1c(OCCCOc2ccc(OCC(=O)O)cc2)ccc(C(C)=O)c1O")
0
>>> qualitative_label("C=CC(=O)NCOCC(C)C")
0
>>> qualitative_label("CCN(CC)CCOC(=O)c1ccc(N)cc1")
0
>>> qualitative_label("CCCC/C=C\\CCCCCCCCCC=O")
0
>>> qualitative_label("Cc1c(Cl)c(=O)oc2cc(O)ccc12")
1
>>> qualitative_label("Cc1ccc2sc3cccc(C)c3c2c1")
0

I would be grateful if you could indicate the recorded call for CCCCC/C=C/C=C/C=O .
0

I would be grateful if you could indicate the recorded call for Nc1ccc(S(=O)(=O)O)c(N)c1 .
0

I would be grateful if you could indicate the recorded call for O=C=NC1CCC(CC2CCC(N=C=O)CC2)CC1 (stereo unspecified) .
1

---

- test name: ATG_PPRE_CIS: Attagene CIS-FACTORIAL HepG2 Assay for human Peroxisome Proliferator-activated Response Element (PPRE) (AID 2282958)
- particulars: HepG2 PPRE cis-element reporter, Attagene transcription factor profiling; actives raise or lower the signal
Calls of active or inactive are those of the source. How the source made its calls: active means hit-call score of the fitted dose curve at least 0.9, where 1 is the maximum; inactive means score below 0.9.
readout kind: AC50

Answered examples (5):
>>> result("C=C(C)C(=O)O")
"inactive"
>>> result("Cc1cccc(Nc2ccccc2C(=O)O)c1C")
"18.2 µM (active)"
>>> result("OC1C(O)C(O)C(O)C(O)C1O (stereo unspecified)")
"inactive"
>>> result("O=C[C@H](O)[C@H](O)[C@H](O)CO")
"inactive"
>>> result("CCCCCCC#CC(=O)OC")
"inactive"

Entry Nc1nc2ccc([N+](=O)[O-])cc2s1 , AC50 reported as 45.6 µM (active)

---

- test name: ATG_CMV_CIS: Attagene CIS-FACTORIAL HepG2 Assay for human CMV (Internal Marker) (AID 2282928);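 note: endpoint acts as a background internal control marker rather than a target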
- particulars: HepG2 CMV promoter reporter, transcription factor profiling; actives raise or lower the signal
Activity calls are given as the source filed them. How the source made its calls: active means hit-call score of the fitted dose curve at least 0.9, where 1 is the maximum; inactive means score below 0.9.
Give your call using only these classes: class 1 for active, class 0 for inactive

Before answering, review these 4 worked examples.
>>> qualitative_label("OCCOc1cccc(OCCO)c1")
"class 0"
>>> qualitative_label("CCCCCCCCCCCCCCCCCC(=O)OCC(CC)CCCC (stereo not given)")
"class 0"
>>> qualitative_label("C=CC(=O)OCCn1c(=O)n(CCOC(=O)C=C)c(=O)n(CCOC(=O)C=C)c1=O")
"class 1"
>>> qualitative_label("O=C1CCc2ccccc2O1")
"class 0"

Continue with the next molecule.
I would be grateful if you could indicate the recorded call for CC1(C)OC[C@@H]2O[C@@]3(C(=O)O)OC(C)(C)O[C@H]3[C@@H]2O1 .
class 0
